Source: ChEMBL document CHEMBL1629442

This section presents compounds with their documented IC50 values.
system: Disintegrin and metalloproteinase domain-containing protein 17 (Homo sapiens)
Sequence (P78536 whole entry, the tested form may be a part): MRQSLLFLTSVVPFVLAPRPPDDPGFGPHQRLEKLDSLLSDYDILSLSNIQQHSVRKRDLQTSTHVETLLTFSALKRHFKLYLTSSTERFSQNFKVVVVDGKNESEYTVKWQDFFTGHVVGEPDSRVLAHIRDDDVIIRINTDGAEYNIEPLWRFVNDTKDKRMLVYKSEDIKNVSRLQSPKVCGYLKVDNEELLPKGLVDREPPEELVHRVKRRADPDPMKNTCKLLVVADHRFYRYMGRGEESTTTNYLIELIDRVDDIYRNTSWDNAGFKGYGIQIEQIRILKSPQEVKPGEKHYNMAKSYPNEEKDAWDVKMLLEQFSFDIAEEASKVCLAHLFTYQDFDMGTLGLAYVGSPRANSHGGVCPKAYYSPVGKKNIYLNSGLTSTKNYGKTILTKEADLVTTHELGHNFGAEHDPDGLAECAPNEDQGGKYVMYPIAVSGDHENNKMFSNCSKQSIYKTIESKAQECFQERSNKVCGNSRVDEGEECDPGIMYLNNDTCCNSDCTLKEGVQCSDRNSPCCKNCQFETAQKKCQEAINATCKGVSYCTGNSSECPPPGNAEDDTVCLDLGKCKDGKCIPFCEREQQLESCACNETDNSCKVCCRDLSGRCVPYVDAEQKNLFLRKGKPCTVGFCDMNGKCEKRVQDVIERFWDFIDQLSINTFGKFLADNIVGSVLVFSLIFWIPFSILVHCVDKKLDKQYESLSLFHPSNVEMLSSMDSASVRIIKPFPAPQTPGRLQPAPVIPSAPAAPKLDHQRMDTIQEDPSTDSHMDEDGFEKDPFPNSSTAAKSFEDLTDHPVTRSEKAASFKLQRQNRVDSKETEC
method: Inhibition of human TACE by fluorescent spectroscopy
I only need the number, in nM, no unit after it.

Consider the worked cases shown below.
>>> df
                                   compound  value_measured
0  Cc1ccc2oc(=O)c(CC(CCCc3ccc(OCCN4CCCCC4)cc3)C(=O)NO)cc2c1 (stereo not drawn)            1.07
1  Cc1ccc2oc(=O)c(CC(CCc3ccc(OCCN(C)C)cc3)C(=O)NO)cc2c1 (stereo not drawn)            0.66

Q. Checklist item: IC50 tested on Disintegrin and metalloproteinase domain-containing protein 17 (Homo sapiens), entry Cc1ccc2oc(=O)c(CC(Cc3cccc(OCCN4CCCCC4)c3)C(=O)NO)cc2c1 (stereo not drawn) , value?
A. 1.07
